Can you tell me Relative variation of the maximum absorbance of the charge transfer bands for the items I'm about to list?
assay: Stability in organic medium (dimethyl sulfoxide) by UV-Vis spectroscopy; assay type: physicochemical; conditions: time 0.25 h, band 357-425 nm (λmax in column head)
Give bare numbers, in %.

Recorded results for 4 compounds are shown here.
1. CC(=O)C1=C[CH]([Ru-]2([PH](c3ccccc3)(c3ccccc3)c3ccccc3)[n+]3cccc4ccc5ccc[n+]2c5c43)C=C1.O=S(=O)([O-])C(F)(F)F (centres unmarked) ... −0.1
2. CC(=O)C1=C[CH]([Ru-]2([PH](c3ccccc3)(c3ccccc3)c3ccccc3)[n+]3ccccc3-c3cccc[n+]32)C=C1.O=S(=O)([O-])C(F)(F)F (centres unmarked) ... 0.1
3. O=C(Cc1ccccc1)C1=C[CH]([Ru-]2([PH](c3ccccc3)(c3ccccc3)c3ccccc3)[n+]3ccccc3-c3cccc[n+]32)C=C1.O=S(=O)([O-])C(F)(F)F (centres unmarked) ... 0.2
4. CCOC(=O)Oc1cc[n+]2c(c1)-c1cc(OC)cc[n+]1[Ru-]2([CH]1C=CC=C1)[PH](c1ccccc1)(c1ccccc1)c1ccccc1.O=S(=O)([O-])C(F)(F)F (centres unmarked) ... 0.0

Let us move to another entry and its Relative variation of the maximum absorbance of the charge transfer bands.
Retrieve Relative variation of the maximum absorbance of the charge transfer bands measured for COc1cc[n+]2c(c1)-c1cc(O)cc[n+]1[Ru-]2([CH]1C=CC=C1)[PH](c1ccccc1)(c1ccccc1)c1ccccc1.O=S(=O)([O-])C(F)(F)F (centres unmarked) and print it. 0.0

* * *

Can you tell me Relative variation of the maximum absorbance of the π→π* transitions for the items I'm about to list?
assay: Stability in organic medium (dimethyl sulfoxide) by UV-Vis spectroscopy; format: physicochemical; settings: time 3 h, band 289-300 nm (λmax in column head)
Numbers only, in %.

Recorded results for 2 molecules are shown here.
1. O=C(Cc1ccccc1)C1=C[CH]([Ru-]2([PH](c3ccccc3)(c3ccccc3)c3ccccc3)[n+]3ccccc3-c3cccc[n+]32)C=C1.O=S(=O)([O-])C(F)(F)F (centres unmarked) ... −0.1
2. CC(=O)C1=C[CH]([Ru-]2([PH](c3ccccc3)(c3ccccc3)c3ccccc3)[n+]3ccccc3-c3cccc[n+]32)C=C1.O=S(=O)([O-])C(F)(F)F (centres unmarked) ... −1.2

Required: Relative variation of the maximum absorbance of the π→π* transitions, one value per molecule below.
1. CCC(=O)C1=C[CH]([Ru-]2([PH](c3ccccc3)(c3ccccc3)c3ccccc3)[n+]3ccccc3-c3cccc[n+]32)C=C1.O=S(=O)([O-])C(F)(F)F (centres unmarked)
2. NNC(=O)C1=C[CH]([Ru-]2([PH](c3ccccc3)(c3ccccc3)c3ccccc3)[n+]3ccccc3-c3cccc[n+]32)C=C1.O=S(=O)([O-])C(F)(F)F (centres unmarked)
3. COc1cc[n+]2c(c1)-c1cc(O)cc[n+]1[Ru-]2([CH]1C=CC=C1)[PH](c1ccccc1)(c1ccccc1)c1ccccc1.O=S(=O)([O-])C(F)(F)F (centres unmarked)

−0.3
0.6
2.5

* * *

test: Stability in aqueous medium (dimethyl sulfoxide/Dulbecco's Modified Eagle Medium) by UV-Vis spectroscopy; type: physicochemical; conditions: 5% dimethyl sulfoxide/95% Dulbecco's Modified Eagle Medium; time 0.25 h; band 292-296 nm (λmax in column head)
ASSAY READOUT: Relative variation of the maximum absorbance of the π→π* transitions

Recorded results for 2 compounds are shown here.
1. COc1cc[n+]2c(c1)-c1cc(O)cc[n+]1[Ru-]2([CH]1C=CC=C1)[PH](c1ccccc1)(c1ccccc1)c1ccccc1.O=S(=O)([O-])C(F)(F)F (stereo not drawn) ... 0.0%
2. CCOC(=O)Oc1cc[n+]2c(c1)-c1cc(OC)cc[n+]1[Ru-]2([CH]1C=CC=C1)[PH](c1ccccc1)(c1ccccc1)c1ccccc1.O=S(=O)([O-])C(F)(F)F (stereo not drawn) ... −0.2%

Let us move to another entry and its Relative variation of the maximum absorbance of the π→π* transitions.
Retrieve Relative variation of the maximum absorbance of the π→π* transitions measured for CC(=O)C1=C[CH]([Ru-]2([PH](c3ccccc3)(c3ccccc3)c3ccccc3)[n+]3ccccc3-c3cccc[n+]32)C=C1.O=S(=O)([O-])C(F)(F)F (stereo not drawn) and print it. 0.6%
